Some compounds, each annotated with its measured MIC of antibiotic in the presence of NAB739.
- Test system: P. aeruginosa ATCC 27853
- protocolDescription: E-test MIC of antibiotics on Mueller Hinton agar containing increasing concentrations of NAB739
- Type: cell-based, Pseudomonas aeruginosa
- testContext: NAB 739 0.5 μg/ml
State the answer as a number, implicitly in µg/mL.

Please review the following examples before continuing.
CC[C@H]1OC(=O)[C@H](C)[C@@H](O[C@H]2C[C@@](C)(OC)[C@@H](O)[C@H](C)O2)[C@H](C)[C@@H](O[C@@H]2O[C@H](C)C[C@H](N(C)C)[C@H]2O)[C@](C)(OC)C[C@@H](C)C(=O)[C@H](C)[C@@H](O)[C@]1(C)O : 16
CO[C@H]1/C=C/O[C@@]2(C)Oc3c(C)c(O)c4c(O)c(c(/C=N/N5CCN(C)CC5)c(O)c4c3C2=O)NC(=O)/C(C)=C\C=C\[C@H](C)[C@H](O)[C@@H](C)[C@@H](O)[C@@H](C)[C@H](OC(C)=O)[C@@H]1C : 32

Please look at the following compound next.
Report MIC of antibiotic in the presence of NAB739 for "C[C@@H](O)[C@H]1C(=O)N2C(C(=O)O)=C(S[C@@H]3CN[C@H](C(=O)N(C)C)C3)[C@H](C)[C@H]12" 0.25

* * *

- System: E. coli IH3080
- protocolDescription: Growth inhibition around wells on LB agar plates
- Type: cell-based, Escherichia coli
- testContext: 10 μg of compound per well
endpointLabel: growth inhibition around a well

OA-Thr-Thr-DSer-cy[Dab-Dab-DPhe-Leu-Dab-Dab-Thr-] [NAB 748] : 156 square millimeters
OA-Thr-Dab-cy[Dab-Dab-DPhe-Leu-Dab-Abu-Thr-] [NAB 717] : 0 square millimeters
DA-Thr-Abu-cy[Dab-Dab-DPhe-Leu-Dab-Dab-Thr-] [NAB 7062] : 99 square millimeters
OA-Thr-Abu-cy[Dab-Lys-DPhe-Leu-Dab-Dab-Thr-] [NAB 731] : 0 square millimeters

Report growth inhibition around a well for OA-Thr-Abu-cy[Dab-Abu-DPhe-Leu-Dab-Dab-Thr-] [NAB 710] 7 square millimeters

* * *

- protocolDescription: in vivo
- testContext: male, Sprague-Dawley, rat, plasma, iv, 1 mg/kg
Where a SMILES comes first, the peptide text is derived from it. Bridges are numbered along the chain shown (N, C = ends). [ ]: non-standard residue; d: D form. The star is where a group is joined. Octanoyl = CCCCCCCC(=O)*; Dab = NCC[C@H](N)C(=O)O; Abu = CC[C@H](N)C(=O)O
endpointLabel: Vd
Returns: string containing the number followed by the unit.

Report Vd for CCCCCCCC(=O)N[C@H](C(=O)N[C@@H](CC)C(=O)N[C@H]1CCNC(=O)[C@H]([C@@H](C)O)NC(=O)[C@H](CCN)NC(=O)[C@H](CCN)NC(=O)[C@H](CC(C)C)NC(=O)[C@@H](Cc2ccccc2)NC(=O)[C@H](CCN)NC1=O)[C@@H](C)O [NAB 7061] (Octanoyl-T[Abu][Dab][Dab][dF]L[Dab][Dab]T; lactam 3-C) 0.339 L/kg

* * *

- Test system: E. coli IH3080
- protocolDescription: E-test MIC with or without NAB7061 (4 μg/ml), Mueller-Hinton agar
- Format: cell-based, Escherichia coli
endpointLabel: Sensitization factor to antibiotic (MIC without / with 4 μg/ml of NAB 7061)

Please review the following examples before continuing.
C/C(=C\C(=O)OCCCCCCCCC(=O)O)C[C@@H]1OC[C@H](C[C@@H]2O[C@H]2[C@@H](C)[C@H](C)O)[C@@H](O)[C@H]1O : 64-85
CC(=O)O[C@H]1C[C@@]2(C)[C@@H](C[C@@H](O)[C@H]3[C@@]4(C)CC[C@@H](O)[C@@H](C)[C@@H]4CC[C@@]32C)/C1=C(\CCC=C(C)C)C(=O)O : >43
CC[C@H]1OC(=O)[C@H](C)[C@@H](O[C@H]2C[C@@](C)(OC)[C@@H](O)[C@H](C)O2)[C@H](C)[C@@H](O[C@@H]2O[C@H](C)C[C@H](N(C)C)[C@H]2O)[C@](C)(O)C[C@@H](C)CN(C)[C@H](C)[C@@H](O)[C@]1(C)O : 31-94
CO[C@H]1/C=C/O[C@@]2(C)Oc3c(C)c(O)c4c(O)c(c(/C=N/N5CCN(C)CC5)c(O)c4c3C2=O)NC(=O)/C(C)=C\C=C\[C@H](C)[C@H](O)[C@@H](C)[C@@H](O)[C@@H](C)[C@H](OC(C)=O)[C@@H]1C : 170-350

Report measured Sensitization factor to antibiotic (MIC without / with 4 μg/ml of NAB 7061) on E. coli IH3080; entry: "CC[C@H]1OC(=O)[C@H](C)[C@@H](O[C@H]2C[C@@](C)(OC)[C@@H](O)[C@H](C)O2)[C@H](C)[C@@H](O[C@@H]2O[C@H](C)C[C@H](N(C)C)[C@H]2O)[C@](C)(O)C[C@@H](C)C(=O)[C@H](C)[C@@H](O)[C@]1(C)O" 32-42

Report measured Sensitization factor to antibiotic (MIC without / with 4 μg/ml of NAB 7061) on E. coli IH3080; entry: "COc1cc(Cc2cnc(N)nc2N)cc(OC)c1OC" 3

* * *

- protocolDescription: in vivo
- testContext: male, Sprague-Dawley, rat, plasma, iv, 1 mg/kg
Where a SMILES comes first, the peptide text is derived from it. Bridges are numbered along the chain shown (N, C = ends). [ ]: non-standard residue; d: D form. The star is where a group is joined. Octanoyl = CCCCCCCC(=O)*; Dab = NCC[C@H](N)C(=O)O; Abu = CC[C@H](N)C(=O)O
endpointLabel: half-life (h)
State the answer as a number, implicitly in h.

Report half-life for CCCCCCCC(=O)N[C@H](C(=O)N[C@@H](CC)C(=O)N[C@H]1CCNC(=O)[C@H]([C@@H](C)O)NC(=O)[C@H](CCN)NC(=O)[C@H](CCN)NC(=O)[C@H](CC(C)C)NC(=O)[C@@H](Cc2ccccc2)NC(=O)[C@H](CCN)NC1=O)[C@@H](C)O [NAB 7061] (Octanoyl-T[Abu][Dab][Dab][dF]L[Dab][Dab]T; lactam 3-C) 1.1

* * *

- protocolDescription: in vivo
- testContext: male, Sprague-Dawley, rat, plasma, iv, 1 mg/kg
Where a SMILES comes first, the peptide text is derived from it. Bridges are numbered along the chain shown (N, C = ends). [ ]: non-standard residue; d: D form. The star is where a group is joined. Octanoyl = CCCCCCCC(=O)*; Dab = NCC[C@H](N)C(=O)O
endpointLabel: clearance (mL/min/kg)
State the answer as a number, implicitly in mL/min/kg.

Report clearance for CCCCCCCC(=O)N[C@H](C(=O)N[C@H](CO)C(=O)N[C@H]1CCNC(=O)[C@H]([C@@H](C)O)NC(=O)[C@H](CCN)NC(=O)[C@H](CCN)NC(=O)[C@H](CC(C)C)NC(=O)[C@@H](Cc2ccccc2)NC(=O)[C@H](CCN)NC1=O)[C@@H](C)O [NAB 739] (Octanoyl-T[dS][Dab][Dab][dF]L[Dab][Dab]T; lactam 3-C) 2.63

* * *

- Tested on: E. coli IH3080
- protocolDescription: Growth inhibition around wells on LB agar plates
- Assay type: cell-based, Escherichia coli
- testContext: 10 μg of compound per well
endpointLabel: growth inhibition around a well (square millimeters)
State the answer as a number, implicitly in square millimeters.

Please review the following examples before continuing.
OA-Abu-cy[Dab-Dab-DPhe-Leu-Dab-Dab-Thr-] [NAB 713] : 0
OA-Thr-Abu-cy[Dab-Dab-DPhe-Leu-Dab-Abu-Thr-] [NAB 709] : 0
OA-Thr-DAla-cy[Dab-Dab-DPhe-Thr-Dab-Dab-Thr-] [NAB 738] : 64

Report growth inhibition around a well for MHA-Thr-Abu-cy[Dab-Dab-DPhe-Leu-Dab-Dab-Thr-] [NAB 706] 7

Report growth inhibition around a well for DA-cy[Dab-Dab-DPhe-Leu-Dab-Dab-Thr-] [NAB 736] 0

* * *

- Tested on: E. coli IH3080
- protocolDescription: Growth inhibition around wells on LB agar plates
- Format: cell-based, Escherichia coli
- testContext: 10 μg of compound per well
endpointLabel: growth inhibition around a well (square millimeters)
State the answer as a number, implicitly in square millimeters.

Please review the following examples before continuing.
OA-Thr-Dab-cy[Dab-Abu-DPhe-Leu-Dab-Dab-Thr-] [NAB 715] : 0
OA-Thr-Abu-cy[Dab-Dab-DPhe-Leu-Dab-Dab-Leu-] [NAB 719] : 50

Report growth inhibition around a well for OA-DAla-DAla-cy[Dab-Dab-DPhe-Leu-Dab-Dab-Thr-] [NAB 733] 0

Report growth inhibition around a well for OA-Thr-Dab-cy[Dab-Dab-DPhe-Leu-Abu-Dab-Thr-] [NAB 716] 64

Report growth inhibition around a well for MHA-Abu-Thr-Abu-cy[Dab-Dab-DPhe-Leu-Dab-Dab-Thr-] [NAB 707] 7

Report growth inhibition around a well for OA-Thr-Asn-cy[Dab-Dab-DPhe-Leu-Dab-Dab-Thr-] [NAB 746] 13

Report growth inhibition around a well for MHA-Dab-Thr-Dab-cy[Dab-Dab-DPhe-Leu-Abu-Abu-Thr-] [NAB 721] 0

Report growth inhibition around a well for OA-Thr-Abu-cy[Dab-Dab-DLeu-Leu-Dab-Dab-Thr-] [NAB 718] 0

Report growth inhibition around a well for OA-Thr-DSer-cy[Dab-Dab-DPhe-Thr-Dab-Dab-Thr-] [NAB 734] 177

Report growth inhibition around a well for OA-Thr-Ser-cy[Dab-Dab-DPhe-Leu-Dab-Dab-Thr-] [NAB 743] 79

Report growth inhibition around a well for OA-Ala-Thr-DSer-cy[Dab-Dab-DPhe-Leu-Dab-Dab-Thr-] [NAB 749] 158
